Values of IC50 for Oxysterols receptor LXR-beta (Homo sapiens, UniProt P55055), collected from a number of published sources:
assay-metric: IC50 (nM)

Please review the following examples before continuing.
| smiles-input | IC50 (nM) |
| --- | --- |
| CC(C)(C)c1nc2c(C#N)cccn2c1-c1cccc(Oc2cccc(CS(C)(=O)=O)c2)c1 | 970 |
| O=C(O)c1cccc(COc2cccc(-c3c(Cc4ccccc4)cnc4c(C(F)(F)F)cccc34)c2)c1 | 358 |

1. CC(C)CN(Cc1cc(-c2cccc(S(N)(=O)=O)c2)cs1)S(=O)(=O)c1ccccc1Cl
2. CS(=O)(=O)c1cccc(-c2ccc(CN(CCN3CCCC3)S(=O)(=O)c3ccccc3C(F)(F)F)s2)c1
3. CS(=O)(=O)c1cc(F)cc(Oc2ccc(-n3c(C(F)(F)F)nc4c(C(F)(F)F)cccc43)cc2)c1
4. Cc1ccc(C(=O)O)cc1NCc1cccc(-c2c(Cc3ccccc3)cnc3c(C(F)(F)F)cccc23)c1
## Input # rank_down: sort by IC50, max first Form entry: ranked labels (order as requested).
## Output 4, 3, 2, 1
(4: 1370 nM, 3: 512 nM, 2: 285 nM, 1: 7.4 nM)

###

Values of IC50 for Oxysterols receptor LXR-beta (Homo sapiens, UniProt P55055), collected from a number of published sources:
assay-metric: IC50 (nM)

| compound | result-value |
| --- | --- |
| Cc1cc(Oc2cccc(S(C)(=O)=O)c2)ccc1-n1c(C)nc2c(C(F)(F)F)cccc21 | 191 |
| CS(=O)(=O)Nc1cccc(-c2cccc(Oc3cnc4c(Cl)cccc4n3)c2)c1 | 257 |
| O=C(O)CCCCS(=O)(=O)c1cccc(Oc2ccc(F)c(-c3ncnc4c(C(F)(F)F)cccc34)c2)c1 | 1430 |

1. CS(=O)(=O)c1cc(F)cc(Oc2ccc(F)c(-c3ncnc4c(Cl)cccc34)c2)c1
2. CS(=O)(=O)c1cccc(Oc2ccc(Cl)c(-c3ncnc4c(C(F)(F)F)cccc34)c2)c1
3. CC(C)N1C(=O)N(S(=O)(=O)c2ccccc2)CC1c1cccc(-c2ccc(CO)c(S(C)(=O)=O)c2)c1 (centres unmarked)
4. O=C(O)c1ccccc1-c1cccc(C2CN(S(=O)(=O)c3ccccc3)C(=O)N2c2ccccc2)c1 (centres unmarked)
5. Cc1nc(-c2cc(Oc3cc(F)cc(S(C)(=O)=O)c3)ccc2Cl)c2cccc(C(F)(F)F)c2n1
## Input # rank_down: sort by IC50, max first Form entry: ranked labels (order as requested).
## Output 4, 1, 5, 2, 3
(4: 46100 nM, 1: 81 nM, 5: 49 nM, 2: 5 nM, 3: 1 nM)

###

pIC50: −log10 of the molar value.
Values of pIC50 for Oxysterols receptor LXR-beta (Homo sapiens), collected from a number of published sources:
assay-metric: pIC50

| smiles-input | measurement-target | result-value |
| --- | --- | --- |
| Cc1ccc(S(=O)(=O)N(C)C)cc1C(=O)Oc1cccc(-c2c(C(C)C)cnc3c(Cl)cccc23)c1 | Oxysterols receptor LXR-beta (Homo sapiens) | 7.60 |
| Cc1nc2c(Cl)cccc2nc1-c1cccc(Oc2cccc(S(C)(=O)=O)c2)c1 | Oxysterols receptor LXR-beta (Homo sapiens) | 6.41 |
| CC(C)S(=O)(=O)c1cccc(Oc2ccc(F)c(-c3ncnc4c(Cl)cccc34)c2)c1 | Oxysterols receptor LXR-beta (Homo sapiens) | 7.82 |

A. O=C(O)c1ccc2ccccc2c1OCc1cccc(-c2c(Cc3ccccc3)cnc3c(C(F)(F)F)cccc23)c1
B. O=C(O)Cc1ccc(NCc2cncc(-c3c(Cc4ccccc4)cnc4c(C(F)(F)F)cccc34)c2)cc1
## Input Given A and given B , which shows the smaller recorded pIC50? Mark your answer with the label of the selected entry.
## Output A

###

Values of IC50 for Oxysterols receptor LXR-beta (Homo sapiens), collected from a number of published sources:
assay-metric: IC50 (nM)

Please review the following examples before continuing.
| compound | IC50 [nM] |
| --- | --- |
| NC(=O)CS(=O)(=O)c1cccc(Oc2ccc(Cl)c(-c3ncnc4c(C(F)(F)F)cccc34)c2)c1 | 56 |
| CS(=O)(=O)c1cccc(Oc2ccc(-c3c(C(F)(F)F)nc4c(C(F)(F)F)cccn34)cc2)c1 | 600 |
| CC(C)S(=O)(=O)N(Cc1ccc(F)cc1)Cc1cccc(-c2cccc(S(C)(=O)=O)c2)c1 | 255 |
| Cc1noc(C)c1CN(Cc1ccc(-c2cccc(S(C)(=O)=O)c2)s1)S(=O)(=O)c1ccccc1C(F)(F)F | 83 |
| Cc1ccc(C)c(-c2cccc(C3CN(S(=O)(=O)c4ccccc4)C(=O)N3C(C)C)c2)c1 (stereo not shown) | 165 |

a. CCc1nc2c(C(F)(F)F)ccnn2c1-c1cccc(Oc2cccc(S(=O)(=O)CC)c2)c1
b. O=C(O)c1cc2cccc(NCc3cccc(-c4c(Cc5ccccc5)cnc5c(C(F)(F)F)cccc45)c3)c2[nH]1
## Input Which item exceeds the other in IC50, a or b ? Mark your answer with the label of the selected entry.
## Output b
(b: 408 nM, a: 148 nM)

a. CCS(=O)(=O)c1cc(F)cc(Oc2ccc(-n3c(C)nc4c(C(F)(F)F)cccc43)c(C)c2)c1
b. CC(C)c1nc2c(Cl)cccn2c1-c1ccc(Oc2cccc(S(C)(=O)=O)c2)cc1
## Input Given a and given b , which shows the smaller recorded IC50? Mark your answer with the label of the selected entry.
## Output a
(a: 301 nM, b: 460 nM)

A. CC(C)S(=O)(=O)c1ccc(Oc2cccc(-c3ncnc4c(C(F)(F)F)cccc34)c2)cc1
B. O=C(O)Cc1cccc2c(NCc3cncc(-c4ccnc5c(C(F)(F)F)cccc45)c3)cccc12
## Input Given A and given B , which shows the smaller recorded IC50? Mark your answer with the label of the selected entry.
## Output A
(A: 1540 nM, B: 15700 nM)

###

Values of pIC50 for Oxysterols receptor LXR-beta (Homo sapiens), collected from a number of published sources:
pIC50: −log10 of the molar value.
assay-metric: pIC50

| smiles-input | pIC50 |
| --- | --- |
| CN(Cc1ccc(-c2cccc(S(C)(=O)=O)c2)s1)S(=O)(=O)c1ccccc1C(F)(F)F | 5.58 |

P. CS(=O)(=O)NCCCCS(=O)(=O)c1cccc(Oc2ccc(F)c(-c3ncnc4c(Cl)cccc34)c2)c1
Q. COc1ccc(C(=O)O)cc1OCc1cccc(-c2c(Cc3ccccc3)cnc3c(C(F)(F)F)cccc23)c1
## Input Which item exceeds the other in pIC50, P or Q ? Mark your answer with the label of the selected entry.
## Output P
(P: 6.35, Q: 5.60)

###

pIC50: −log10 of the molar value.
Values of pIC50 for Oxysterols receptor LXR-beta (Homo sapiens, UniProt P55055), collected from a number of published sources:
assay-metric: pIC50

| molecule | assay-metric | result-value |
| --- | --- | --- |
| CCc1nc(-c2cccc(-c3cccc(S(C)(=O)=O)c3)c2)c2cccc(C(F)(F)F)c2n1 | pIC50 | 7.01 |
| CC(C)CN(Cc1ccc(-c2cccc(S(C)(=O)=O)c2)s1)S(=O)(=O)c1ccccc1F | pIC50 | 7.55 |

1. CCN(CC)C(=O)CN(Cc1ccc(-c2cccc(S(C)(=O)=O)c2)s1)S(=O)(=O)c1ccccc1C(F)(F)F
2. CC(C)c1cnc2c(C(F)(F)F)cccc2c1-c1cccc(OC(=O)c2cc(S(C)(=O)=O)ccc2Cl)c1
3. Cc1nc2c(C(F)(F)F)cccc2nc1-c1cc(Oc2cccc(S(=O)(=O)CCCF)c2)ccc1Cl
4. CCc1nc2c(C#N)cccn2c1-c1cccc(Oc2cccc(S(=O)(=O)C(C)C)c2)c1
5. NCCCCS(=O)(=O)c1cccc(Oc2ccc(F)c(-c3ncnc4c(Cl)cccc34)c2)c1
## Input # rank_down: sort by pIC50, max first Form entry: ranked labels (order as requested).
## Output 2, 4, 1, 3, 5
(2: 8.39, 4: 7.43, 1: 6.80, 3: 6.54, 5: 5.73)

1. CC(C)S(=O)(=O)N(Cc1cccc(-c2cccc(S(C)(=O)=O)c2)c1)CC1CCC1
2. CS(=O)(=O)c1cccc(COc2ccc(Cl)c(-n3cnc4c(C(F)(F)F)cccc43)c2)c1
## Input Which item exceeds the other in pIC50, 1 or 2 ? Mark your answer with the label of the selected entry.
## Output 2

1. CCS(=O)(=O)c1ccc(Oc2ccc(Cl)c(-n3c(C)nc4c(Cl)cccc43)c2)cc1
2. CNS(=O)(=O)c1cccc(-c2ccc(Oc3nc4cccc(Cl)c4nc3C)cc2)c1
## Input Which item exceeds the other in pIC50, 1 or 2 ? Mark your answer with the label of the selected entry.
## Output 1

I. O=C(O)Cc1ccc2c(OCc3cccc(-c4c(Cc5ccccc5)cnc5c(C(F)(F)F)cccc45)c3)cccc2c1
II. O=C(O)CC1=CCCc2c(OCc3cccc(-c4c(Cc5ccccc5)cnc5c(C(F)(F)F)cccc45)c3)cccc21
## Input Given I and given II , which shows the smaller recorded pIC50? Mark your answer with the label of the selected entry.
## Output I
(I: 7.15, II: 8.10)

1. CS(=O)(=O)c1cccc(Oc2ccc(F)c(-c3ncnc4c(Cl)cccc34)c2)c1
2. NCCCCS(=O)(=O)c1cccc(Oc2ccc(F)c(-c3ncnc4c(C(F)(F)F)cccc34)c2)c1
3. CC(C)C[C@H](NC(=O)c1ccc(COc2cccc(-c3c(Cc4ccccc4)cnc4c(C(F)(F)F)cccc34)c2)cc1)C(=O)O
## Input # rank_down: sort by pIC50, max first Form entry: ranked labels (order as requested).
## Output 1, 3, 2

1. Cc1ccc(CC(=O)O)cc1OCc1cccc(-c2c(Cc3ccccc3)cnc3c(C(F)(F)F)cccc23)c1
2. Cc1ccc(C(=O)O)cc1C#Cc1cccc(-c2c(Cc3ccccc3)cnc3c(C(F)(F)F)cccc23)c1
## Input Given 1 and given 2 , which shows the smaller recorded pIC50? Mark your answer with the label of the selected entry.
## Output 2

1. CS(=O)(=O)c1cccc(Oc2cccc(-c3ncnc4c(Cl)cccc34)c2)c1
2. CC(C)N1C(=O)N(S(=O)(=O)c2ccccc2F)CC1c1cccc(-c2cccc(S(C)(=O)=O)c2)c1 (stereo not shown)
3. O=S(=O)(CCCO)c1cccc(Oc2ccc(F)c(-c3ncnc4c(Cl)cccc34)c2)c1
4. Cc1ccc(F)cc1S(=O)(=O)N(Cc1ccc(-c2cccc(S(C)(=O)=O)c2)s1)CC(C)C
## Input Please list these in order of increasing pIC50. Thank you! Form entry: ranked labels (order as requested).
## Output 1, 3, 4, 2
(1: 6.53, 3: 6.74, 4: 7.55, 2: 8.22)

1. NCc1cccc(-c2cccc(C3CN(S(=O)(=O)c4ccccc4)CCN3c3ccccc3)c2)c1 (stereo not shown)
2. CS(=O)(=O)c1cc(Oc2ccc(F)c(-c3ncnc4c(Cl)cccc34)c2)ccc1C(N)=O
## Input Given 1 and given 2 , which shows the smaller recorded pIC50? Mark your answer with the label of the selected entry.
## Output 2
